target: human β3-adrenergic receptor (Homo sapiens, UniProt P13945); construct: expressed in transfected cells; experiment: cAMP levels in CHO-K1 cells expressing the human β3-adrenergic receptor; assay type: cell-based; conditions: CHO-K1, 0.25 h, 15 min, read-out: Activity (intracellular cAMP compared to that of isoproterenol)
Sequence (P13945 whole entry): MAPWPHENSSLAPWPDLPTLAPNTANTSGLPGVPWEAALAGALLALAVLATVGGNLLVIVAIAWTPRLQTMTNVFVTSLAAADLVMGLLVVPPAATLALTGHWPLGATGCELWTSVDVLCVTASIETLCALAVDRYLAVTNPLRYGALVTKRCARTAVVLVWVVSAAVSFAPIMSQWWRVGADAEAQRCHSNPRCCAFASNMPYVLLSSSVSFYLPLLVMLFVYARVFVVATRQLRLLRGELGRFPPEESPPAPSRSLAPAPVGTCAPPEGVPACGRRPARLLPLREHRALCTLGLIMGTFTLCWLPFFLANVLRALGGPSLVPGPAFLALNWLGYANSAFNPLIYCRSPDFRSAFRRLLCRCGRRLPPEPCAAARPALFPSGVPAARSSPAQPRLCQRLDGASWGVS
endpoint.label: Emax at 10 µM

Some molecules with known Emax at 10 µM results, for comparison:
# molecule, Emax at 10 µM
rows = [
    ("O[C@H](c1cccc(F)c1)[C@H]1CCC2(CCCC2)N1", "> 75%"),
    ("CC(C)(C[C@H]1CC[C@H](NC(=O)C(F)(F)F)CC1)NC[C@H](O)c1cccc(F)c1", "> 75%"),
    ("CCC[C@H](C)NC[C@H](O)c1cccc(O)c1", "> 75%"),
    ("CC(C)(C)NCC(O)c1ccncc1O (stereo not drawn)", "> 75%"),
    ("CO[C@H]1CC[C@H](C[C@@H]2CC[C@H]([C@H](O)c3cccc(F)c3F)N2)CC1", "> 75%"),
    ("CO[C@H]1CC[C@H](C[C@@H]2CC[C@H]([C@H](O)c3ccccc3F)N2)CC1", "50 to 75%"),
]

Give Emax at 10 µM for each of the items listed below.
1. CC(C)(C)NC[C@H](O)c1cccc(F)c1F
2. CO[C@H]1CC[C@H](CC[C@@H]2CC[C@H]([C@H](O)c3cccc(F)c3)N2)CC1
3. CC(C)(C[C@H]1CC[C@H](NS(C)(=O)=O)CC1)NC[C@H](O)c1cncc(F)c1
4. CO[C@H]1CC[C@H](C(C)(C)NC[C@H](O)c2cccc(F)c2)CC1
5. CC(C)(C[C@H]1CC[C@H](NS(C)(=O)=O)CC1)NC[C@H](O)c1cccc(C#N)n1

### Response
1: > 75%; 2: > 75%; 3: > 75%; 4: 50 to 75%; 5: > 75%

Count: 4. Required value per item: Emax at 10 µM.
1. CS(=O)(=O)N[C@H]1CC[C@H](C[C@@H]2CC[C@H]([C@H](O)c3cccc(F)c3)N2)CC1
2. CN(C)C(=O)N1CCC[C@@H](CC(C)(C)NC[C@H](O)c2cccc(F)c2)C1
3. CC(C)(C[C@H]1CC[C@H](NS(=O)(=O)C(F)(F)F)CC1)NC[C@H](O)c1cncc(F)c1
4. CO[C@H]1CC[C@H](CC(C)(C)NC[C@H](O)c2ccc(F)c(N)c2F)CC1

### Response
1. > 75%
2. > 75%
3. > 75%
4. > 75%
